Test system: Mus musculus
experiment description: Toxicity in mouse assessed as tail bleeding time at 200 mg/kg, po after 90 mins
Format: organism-based
Design: dose 200 mg/kg, route oral
condition summary: in vivo, 1.5 h
metric: Activity (s)
Note: unit s is implicit; provide only the numeric part.

Look over these answered cases.
{"compound structure": "C[C@@H]1O[C@H](c2ccccc2)OC[C@H]1NC(=O)c1ccccc1", "Activity [s]": 118.9}
{"compound structure": "C[C@@H]1O[C@H](c2ccc([N+](=O)[O-])cc2)OC[C@H]1NC(=O)c1ccccc1", "Activity [s]": 119}
{"compound structure": "O=C(Cc1ccccc1)N[C@H]1CO[C@@H](c2cccc([N+](=O)[O-])c2)OC1", "Activity [s]": 118.6}
{"compound structure": "C[C@@H]1O[C@@H](c2ccc(Cl)cc2)OC[C@H]1NC(=O)c1ccccc1", "Activity [s]": 118.7}
{"compound structure": "C[C@@H]1O[C@H](c2ccc(Cl)cc2)OC[C@H]1NC(=O)Cc1ccccc1", "Activity [s]": 119}

Lab note: need Activity with Mus musculus for entry Cc1ccc([C@H]2OC[C@H](NC(=O)Cc3ccccc3)CO2)cc1 , please look it up.
119.2

// map O=C(N[C@H]1CO[C@@H](c2cccc([N+](=O)[O-])c2)OC1)c1ccccc1 to recorded Activity (system: Mus musculus)
120.2
